These entries and their values trace back to patent US9034862B2.

pIC50 for assorted compounds
- Test system: human cervix carcinoma HeLa cells
- procedure text: MTT assay, HeLa
- Type: cell-based
- experimental setup: Table 5, HeLa, 72-h incubation
pIC50: −log10 of the molar value.
endpoint label: pIC50

INSERT INTO assay_data (compound, endpoint_label, obs_value) VALUES
  ('O=[N+]([O-])[O-].[NH3+][Pt-2]([NH3+])([Cl])[n+]1cccc2c3ccccc3ccc21 (stereo not drawn) [cis-[Pt(NH3)2(benzo[f]quinoline)Cl]NO3]', 'pIC50', 6.19),
  ('N.N.O=[N+]([O-])[O-].[Cl][Pt+].c1ccc2nc3ccccc3cc2c1 [cis-[Pt(NH3)2(acridine)Cl]NO3]', 'pIC50', 5.57),
  ('N.N.O=[N+]([O-])[O-].[Cl][Pt+].c1ccncc1 [pyriplatin, cis-[Pt(NH3)2(pyridine)Cl]NO3]', 'pIC50', 4.50),
  ('N.N.[Cl][Pt][Cl] [cisplatin]', 'pIC50', 5.75);

---

- Tested on: normal lung fibroblast MRC5
- procedure text: MTT assay, MRC5
- Format: cell-based, human
- experimental setup: Table 4, MRC5 normal lung fibroblast, 72 h incubation
pIC50: −log10 of the molar value.
Documented pIC50 across a set of molecules
endpoint label: pIC50

INSERT INTO measurements (molecule, endpoint_label, obs_value) VALUES
  ('N.N.O=[N+]([O-])[O-].[Cl][Pt+].c1ccncc1 [pyriplatin, cis-[Pt(NH3)2(pyridine)Cl]NO3]', 'pIC50', 4.04),
  ('N.N.[Cl][Pt][Cl] [cisplatin]', 'pIC50', 5.21);

---

- System: Human colon carcinoma HT29
- procedure text: MTT assay, HT29
- Type: cell-based
- experimental setup: Table 3, HT29 Colorectal, 72-h incubation
pIC50: −log10 of the molar value.
endpoint label: pIC50

INSERT INTO measurements (compound, endpoint_label, obs_value) VALUES
  ('N.N.O=[N+]([O-])[O-].[Cl][Pt+].c1ccncc1 [pyriplatin, cis-[Pt(NH3)2(pyridine)Cl]NO3]', 'pIC50', 3.84),
  ('N.N.[Cl][Pt][Cl] [cisplatin]', 'pIC50', 4.80),
  ('O=C1[O][Pt]2([NH][C@@H]3CCCC[C@H]3[NH]2)[O]C1=O [oxaliplatin]', 'pIC50', 5.74);

---

- Tested on: human prostate carcinoma PC3
- procedure text: MTT assay, PC3
- Assay type: cell-based
- experimental setup: Table 11 (Example 3), PC3 Prostate, 72 h
endpoint label: IC50 (µM)

INSERT INTO assay_data (compound, endpoint_label, unit_of_measurement, obs_value) VALUES
  ('N.N.[Cl][Pt][Cl] [cisplatin]', 'IC50', 'µM', 3.93);

---

- System: human lung carcinoma A549
- procedure text: MTT assay, A549
- Format: cell-based
- experimental setup: Table 11 (Example 3), A549 Lung, 72 h
endpoint label: IC50 (µM)

INSERT INTO assay_data (compound, system_under_test, endpoint_label, obs_value) VALUES
  ('N.N.[Cl][Pt][Cl] [cisplatin]', 'human lung carcinoma A549', 'IC50', 6.47);

---

- Tested on: human cervix carcinoma HeLa cells
- procedure text: MTT assay, HeLa
- Type: cell-based
- experimental setup: Table 11 (Example 3), HeLa Cervix, 72 h
pIC50: −log10 of the molar value.
endpoint label: pIC50

INSERT INTO assay_data (compound, obs_value) VALUES
  ('N.N.[Cl][Pt][Cl] [cisplatin]', 5.75);

---

Here, each record is paired with measured IC50 data.
- System: Human colon carcinoma HT29
- procedure text: MTT assay, HT29
- Format: cell-based
- experimental setup: Table 5, HT29, 72-h incubation
endpoint label: IC50 (µM)

INSERT INTO measurements (compound, endpoint_label, obs_value) VALUES
  ('Cc1cccnc1N.N.N.O=[N+]([O-])[O-].[Cl][Pt+]', 'IC50', 72.9),
  ('N.N.[Cl][Pt][Cl] [cisplatin]', 'IC50', 15.9),
  ('N.N.O=[N+]([O-])[O-].[Cl][Pt+].c1ccncc1 [pyriplatin, cis-[Pt(NH3)2(pyridine)Cl]NO3]', 'IC50', 144),
  ('N.N.O=[N+]([O-])[O-].[Cl][Pt+].c1ccc2nc3ccccc3cc2c1 [cis-[Pt(NH3)2(acridine)Cl]NO3]', 'IC50', 13.5),
  ('N.N.O=[N+]([O-])[O-].[Cl][Pt+].c1ccc2cnccc2c1 [cis-[Pt(NH3)2(isoquinoline)Cl]NO3]', 'IC50', 45.6);
